parameter: melting point (°C)

INSERT INTO assay_data (compound, parameter, unit_symbol, numeric_value) VALUES
  ('CC(C)=CCOc1cc(OCC=C(C)C)c2c(C)cc(=O)oc2c1 [4g]', 'melting point', '°C', 90),
  ('CCCc1cc(=O)oc2cc(OCC=C(C)C)ccc12 [4e, 7-Prenyloxy-4-propyl-2H-chromen-2-one]', 'melting point', '°C', 89),
  ('CCCCCCCCOc1ccc2c(CCC)cc(=O)oc2c1 [4f, 7-Octyloxy-4-propyl-2H-chromen-2-one]', 'melting point', '°C', 47),
  ('CCCc1cc(=O)oc2cc(OC/C=C(\C)CCC=C(C)C)cc(OC/C=C(\C)CCC=C(C)C)c12 [4i]', 'melting point', '°C', 79),
  ('CCCCCCCCOc1ccc2c(C)cc(=O)oc2c1 [4d, 4-Methyl-7-octyloxy-2H-chromen-2-one]', 'melting point', '°C', 51),
  ('CC(C)=CCOc1ccc2c(C)cc(=O)oc2c1 [4a, 7-Prenyloxy-4-methyl-2H-chromen-2-one]', 'melting point', '°C', 84),
  ('CCCc1cc(=O)oc2cc(O)ccc12 [3a, 7-Hydroxy-4-propyl-2H-chromen-2-one]', 'melting point', '°C', 130);
